Tested on: IκB-α
Test: IκB-α kinase inhibition, in vitro kinase assay
Format: biochemical
Conditions used: unit nM printed beside the value
Measured property: IC50 (nM)
Answers are plain numbers, in nM.

For "CC(C)[C@H](CO)Nc1nc(Nc2cccc(Cl)c2)c2nc(F)n(C(C)C)c2n1" the compound record lists IC50 as 11

----------
Give log10(IC50) for every item shown.
Test system: T-lymphoblastic leukemia cell line CEM
Test: In vitro cytotoxicity, MTT assay, CEM
Type: cell-based
Conditions used: Homo sapiens, 72 hours
// units: µM (pre-log); metric: IC50; scale: log10

Provide log10(IC50) values for the following items, in order.
1. Cn1c(O)nc2c(NCc3ccccc3)nc(NCCO)nc21
2. CC[C@H](CO)Nc1nc(NCc2ccccc2)c2nc(F)n(C(C)C)c2n1
3. CC(C)[C@H](CO)Nc1nc(Nc2cccc(Cl)c2)c2nc(F)n(C(C)C)c2n1
4. CSc1nc2c(NCc3ccccc3)nc(NCCCO)nc2n1C(C)C
5. CC(C)n1c(N)nc2c(NCc3ccccc3)nc(NCCCO)nc21
6. Cn1c(S)nc2c(NCc3ccccc3)nc(NCCO)nc21

Result:
[1.66, 0.53, 0.40, 1.84, 0.93, 1.97]

Each of the following entries comes with a recorded value; kindly state log10(IC50) for each.
1. CC(C)n1c(Br)nc2c(NCc3ccccc3)nc(NCCCO)nc21
2. CC(C)n1c(O)nc2c(NCc3ccccc3)nc(NCCCO)nc21

Result:
1: 2.07; 2: 0.87

----------
Tested on: IκB-α
Test: IκB-α kinase inhibition, in vitro kinase assay
Type: biochemical
Measured property: log10 IC50 (log10 of the value in µM)
Please note: log10 values; quantity IC50; unit µM.

Guide cases for log10 IC50, answers given:
Cn1c(O)nc2c(NCc3ccccc3)nc(NCCO)nc21
1.21
CC(C)n1c(NCCO)nc2c(NCc3ccccc3)nc(NCCCO)nc21
2.18
CC[C@H](CO)Nc1nc(NCc2ccccc2)c2nc(F)n(C(C)C)c2n1
0.08
CC[C@H](CO)Nc1nc(NCc2ccccc2)c2nc(NCN)n(C(C)C)c2n1
2.29
CC(C)n1c(O)nc2c(NCc3ccccc3)nc(NCCCO)nc21
1.10
CC(C)n1c(Br)nc2c(NCc3ccccc3)nc(NCCCO)nc21
1.39
Cn1c(NCCO)nc2c(NCc3ccccc3)nc(NCCO)nc21
2.19
Cn1c(S)nc2c(NCc3ccccc3)nc(NCCO)nc21
1.55

Then this compound:
# log10 IC50 (compound: "CC(C)n1c(N)nc2c(NCc3ccccc3)nc(NCCCO)nc21" ) is 1.11

----------
Tested on: CDC2 (p34^cdc2) (Homo sapiens, UniProt P06493)
Construct: made in house; host or cells: Sf9 insect cells (baculovirus co-infection)
Sequence (P06493 whole entry, species assumed): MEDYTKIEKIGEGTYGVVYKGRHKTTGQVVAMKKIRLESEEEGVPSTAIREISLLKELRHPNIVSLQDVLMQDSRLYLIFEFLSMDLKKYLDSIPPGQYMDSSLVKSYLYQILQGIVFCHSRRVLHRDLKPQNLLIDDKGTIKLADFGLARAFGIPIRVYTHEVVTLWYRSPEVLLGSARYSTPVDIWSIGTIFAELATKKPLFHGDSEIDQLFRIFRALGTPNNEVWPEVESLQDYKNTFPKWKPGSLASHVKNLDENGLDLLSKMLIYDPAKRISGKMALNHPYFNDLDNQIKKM
Sequence (P14635 whole entry partner, species assumed): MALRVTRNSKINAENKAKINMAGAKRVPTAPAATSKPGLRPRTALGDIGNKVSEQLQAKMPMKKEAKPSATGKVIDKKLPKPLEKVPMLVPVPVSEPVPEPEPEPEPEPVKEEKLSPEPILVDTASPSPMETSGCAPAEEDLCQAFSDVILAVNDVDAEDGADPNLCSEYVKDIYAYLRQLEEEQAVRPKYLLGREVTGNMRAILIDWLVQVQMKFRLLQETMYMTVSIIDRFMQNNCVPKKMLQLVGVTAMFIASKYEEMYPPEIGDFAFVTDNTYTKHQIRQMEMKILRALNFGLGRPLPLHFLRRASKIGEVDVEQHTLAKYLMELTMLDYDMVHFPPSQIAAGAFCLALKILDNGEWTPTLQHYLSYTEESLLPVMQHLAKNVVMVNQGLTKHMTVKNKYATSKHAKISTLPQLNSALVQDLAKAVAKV
Test: CDK inhibition assay, p34cdc2 kinase (histone H1 phosphorylation)
Format: biochemical
Conditions used: unit nM printed beside the value; 1 mg/ml histone H1, 15 μM ATP
Measured property: IC50

Kindly note the recorded IC50 for "CC(C)[C@H](CO)Nc1nc(Nc2cccc(Cl)c2)c2nc(F)n(C(C)C)c2n1" , which is 3.8 nM

----------
System: normal human lymphocytes, spontaneous proliferation
Test: Spontaneous proliferation of lymphocytes, 3H-thymidine incorporation
Assay type: cell-based
Conditions used: Lymphocyte, 72 hours, unstimulated lymphocytes
Task for the reader: assign each of the following compounds its reported pIC50.
Numbers only, as −log10 of the molar value.

CC(C)n1c(NCCO)nc2c(NCc3ccccc3)nc(NCCCO)nc21
3.74
CC(C)n1c(Br)nc2c(NCc3ccccc3)nc(NCCCO)nc21
3.75
CC(C)n1c(N)nc2c(NCc3ccccc3)nc(NCCCO)nc21
3.84
CC(C)n1c(O)nc2c(NCc3ccccc3)nc(NCCCO)nc21
3.79
Cn1c(O)nc2c(NCc3ccccc3)nc(NCCO)nc21
3.70

Consider the record given below.
// "CC[C@H](CO)Nc1nc(NCc2ccccc2)c2nc(NCN)n(C(C)C)c2n1" : pIC50 value = 3.75
